Attribution: paper PMC9505734

assay: Water solubility test in phosphate buffers (HPLC); format: physicochemical; settings: aqueous buffer; phosphate buffer pH = 2.0
Kindly supply the reported solubility at 1 h values for the records listed here.
Please state the figure in µg/mL; there is no need to write the unit.

Ask: Looking for the measured solubility at 1 h of O=C(Nc1cc(F)c(F)c(F)c1)c1ccc(F)c(S(=O)(=O)N2CCC(O)CC2)c1 , can you help?
Result: 3.82

Ask: I would be grateful if you could share the reported solubility at 1 h for O=C(O)CCC(=O)OC1CCN(S(=O)(=O)c2cc(C(=O)Nc3cc(F)c(F)c(F)c3)ccc2F)CC1 .
Result: 695

* * *

Please provide measured SI: selectivity index, the ratio of CC50/EC50 for the entries that follow.
Tested on: HBV replication in Hep38.7-Tet cells
Experiment: In vitro anti-HBV assay: inhibition of HBV replication (HBV DNA in culture supernatant, real-time PCR)
Format: cell-based, Hepatitis B virus
Protocol: The target compounds N5-N8 were evaluated for their antiviral potency against HBV replication, as well as cytotoxicity in Hep38.7-Tet cells, which reproduces HBV replication from a chromosome-integrated HBV transgene under depletion of tetracycline from the medium. The 50% effective concentration (EC50) for anti-HBV activity, 50% cytotoxic concentration (CC50), and selectivity index (SI) calculated by CC50/EC50 ratio are shown in Table 1. […]
# answer = number (no unit)

Ask: Data request, read-out SI: selectivity index, the ratio of CC50/EC50, for O=C(Nc1cc(F)c(F)c(F)c1)c1ccc(F)c(S(=O)(=O)N2CCC(OP(=O)(O)O)CC2)c1
Result: 33

Ask: Which measured SI: selectivity index, the ratio of CC50/EC50 value corresponds to O=C(O)CCCC(=O)OC1CCN(S(=O)(=O)c2cc(C(=O)Nc3cc(F)c(F)c(F)c3)ccc2F)CC1 ?
Result: 46

Ask: Param item = O=C(O)CCC(=O)OC1CCN(S(=O)(=O)c2cc(C(=O)Nc3cc(F)c(F)c(F)c3)ccc2F)CC1 ; retrieve measured SI: selectivity index, the ratio of CC50/EC50.
Result: 36

Ask: Using the record for O=C(Nc1cc(F)c(F)c(F)c1)c1ccc(F)c(S(=O)(=O)N2CCC(O)CC2)c1 , report its SI: selectivity index, the ratio of CC50/EC50.
Result: 36

* * *

experiment: Pharmacokinetic experiment after oral administration in rats; type: in vivo, SD rats; conditions: male, SD, plasma, 10 mg/kg; analyte NVR 3-778 after oral NVR 3-778, rat; read-out: MRT0-last
Measured endpoint: MRT last (h)
Hi! Could you send only the number? It should be in h, unit omitted.

Ask: Give the measured MRT last of O=C(Nc1cc(F)c(F)c(F)c1)c1ccc(F)c(S(=O)(=O)N2CCC(O)CC2)c1 [NVR 3-778] .
Result: 2.67

* * *

Structures can show the parent of a compound that is named as a salt.
Please go through the items and note down their melting point.

Ask: Look at this compound and give its reported melting point. O=C(O)CCC(=O)OC1CCN(S(=O)(=O)c2cc(C(=O)Nc3cc(F)c(F)c(F)c3)ccc2F)CC1
Result: 138 to 140 °C

Ask: Record request: melting point value, item O=C(Nc1cc(F)c(F)c(F)c1)c1ccc(F)c(S(=O)(=O)N2CCC(OP(=O)(O)O)CC2)c1 (as salt: phosphate)
Result: 162 to 164 °C

Ask: If you can, please state the reported melting point value of O=C(O)CCCC(=O)OC1CCN(S(=O)(=O)c2cc(C(=O)Nc3cc(F)c(F)c(F)c3)ccc2F)CC1 .
Result: 135 to 137 °C

Ask: Consider the compound O=C(O)CCCCC(=O)OC1CCN(S(=O)(=O)c2cc(C(=O)Nc3cc(F)c(F)c(F)c3)ccc2F)CC1 and give its measured melting point.
Result: 132 to 134 °C
